# subjectOfTest: STAP1 (Homo sapiens)
# Construct: made in house; host or cells: HEK293 (transient transfection), unpurified extract
# Sequence (Q9ULZ2 1-295): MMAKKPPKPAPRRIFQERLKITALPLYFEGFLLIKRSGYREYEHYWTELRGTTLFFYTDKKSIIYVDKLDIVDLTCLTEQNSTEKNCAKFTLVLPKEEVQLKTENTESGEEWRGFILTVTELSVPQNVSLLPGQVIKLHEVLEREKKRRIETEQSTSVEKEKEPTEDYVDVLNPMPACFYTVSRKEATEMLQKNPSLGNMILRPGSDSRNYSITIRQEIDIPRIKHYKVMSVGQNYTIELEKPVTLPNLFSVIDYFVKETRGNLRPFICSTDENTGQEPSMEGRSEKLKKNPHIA
# assayMethodText: biochemical
# Assay type: binding
# measurementContext: primary screen, 10 μM; read-out: percent of DMSO vehicle control
observable: remaining activity at 10 µM (%)
A number alone suffices; assume %.

Known results for compounds:
Exercise: I'd like to know its remaining activity at 10 µM. The compound in question is CC(C)(C)[C@H](NC(=O)/C=C/c1ccc(OP(=O)(O)O)cc1)C(=O)N1CCC[C@H]1C(=O)N(c1ccccc1)c1ccc(I)cc1
Key: 76.9

Exercise: I'd like to know its remaining activity at 10 µM. The compound in question is O=C(COc1ccc2cc(C(=O)Nc3ccccc3)ccc2c1)NCc1ccc(OP(=O)(O)O)c(OP(=O)(O)O)c1
Key: 92

Exercise: I'd like to know its remaining activity at 10 µM. The compound in question is C/C(=C\C(=O)N[C@H](C(=O)N1CCC[C@H]1C(=O)N(c1ccccc1)c1ccc(I)cc1)C(C)(C)C)c1ccc(OP(=O)(O)O)cc1
Key: 65.6

Lab note: next compound to report on.
Exercise: I'd like to know its remaining activity at 10 µM. The compound in question is O=C(CCl)Nc1cccc(CNC(=O)[C@H](Cc2ccc(OP(=O)(O)O)cc2)NC(=O)Cc2ccc(F)cc2)c1
Key: 84.3

* * *

# subjectOfTest: SHC2 (Homo sapiens, UniProt P98077)
# Construct: made in house; host or cells: HEK293 (transient transfection), unpurified extract
# Sequence (P98077 whole entry): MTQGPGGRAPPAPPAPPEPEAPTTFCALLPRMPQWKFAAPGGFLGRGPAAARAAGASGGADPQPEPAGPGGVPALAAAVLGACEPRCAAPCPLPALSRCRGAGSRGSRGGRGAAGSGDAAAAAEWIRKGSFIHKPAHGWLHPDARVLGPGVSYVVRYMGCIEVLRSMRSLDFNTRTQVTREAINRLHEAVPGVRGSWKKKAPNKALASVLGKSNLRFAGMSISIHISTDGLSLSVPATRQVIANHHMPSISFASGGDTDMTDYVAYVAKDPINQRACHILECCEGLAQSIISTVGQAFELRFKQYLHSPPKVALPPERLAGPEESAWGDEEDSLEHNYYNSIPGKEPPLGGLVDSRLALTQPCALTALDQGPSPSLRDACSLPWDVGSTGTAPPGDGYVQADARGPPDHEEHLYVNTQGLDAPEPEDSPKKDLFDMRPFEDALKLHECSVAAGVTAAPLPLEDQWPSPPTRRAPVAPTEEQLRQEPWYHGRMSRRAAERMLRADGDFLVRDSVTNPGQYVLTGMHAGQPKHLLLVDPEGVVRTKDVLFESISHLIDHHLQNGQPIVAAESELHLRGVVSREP
# assayMethodText: biochemical
# Format: binding
# measurementContext: read-out: percent of DMSO vehicle control
Non-standard residues stand in square brackets, D forms with d. Residues, ends and D or L forms follow the SMILES beside them. *: point of attachment. pY = N[C@@H](Cc1ccc(OP(=O)(O)O)cc1)C(=O)O; Caffeoyl = O=C(/C=C/c1ccc(O)c(O)c1)*
# remaining activity at 10 µM values compiled below
A number alone suffices; assume %.

Known results for compounds:
Exercise: I'd like to know its remaining activity at 10 µM. The compound in question is CC(=O)N[C@@H](Cc1ccc(CP(=O)(O)O)cc1)C(=O)NC1(C(=O)N[C@@H](CC(N)=O)C(=O)NCCCc2c(O)ccc3ccccc23)CCCCC1
Key: 100

Exercise: I'd like to know its remaining activity at 10 µM. The compound in question is CC(=O)N1CC[C@H]2CC[C@@H](C(=O)N[C@@H](CCC(N)=O)C(=O)NC(c3ccccc3)c3ccccc3)N2C(=O)[C@@H](NC(=O)c2cc3cc(C(F)(F)P(=O)(O)O)ccc3[nH]2)C1
Key: 131

New cases:
Exercise: I'd like to know its remaining activity at 10 µM. The compound in question is CC[C@H](C)[C@H](NC(=O)[C@H](CCC(=O)O)NC(=O)[C@H](CCC(=O)O)NC(=O)[C@H](Cc1ccc(OP(=O)(O)O)cc1)NC(=O)/C=C/c1ccc(O)c(O)c1)C(=O)N[C@@H](CCC(=O)O)C(=O)O [Caffeic acid-pYEEIE] (Caffeoyl-[pY]EEIE-OH)
Key: 0.3

Exercise: I'd like to know its remaining activity at 10 µM. The compound in question is NC(=O)CC[C@H](NC(=O)[C@@H]1CC[C@@H]2CCN(C(=O)CCCCCC#Cc3cccc4c3CN(C3CCC(=O)NC3=O)C4=O)C[C@H](NC(=O)c3cc4cc(C(F)(F)P(=O)(O)O)ccc4[nH]3)C(=O)N21)C(=O)NC(c1ccccc1)c1ccccc1 (stereo partly shown)
Key: 94.9

The measurements presented in this section are drawn from paper PMC12951562.
